Biological target: PLK1 (polo-like kinase 1) (Homo sapiens, UniProt P53350)
Sequence (P53350 2-603): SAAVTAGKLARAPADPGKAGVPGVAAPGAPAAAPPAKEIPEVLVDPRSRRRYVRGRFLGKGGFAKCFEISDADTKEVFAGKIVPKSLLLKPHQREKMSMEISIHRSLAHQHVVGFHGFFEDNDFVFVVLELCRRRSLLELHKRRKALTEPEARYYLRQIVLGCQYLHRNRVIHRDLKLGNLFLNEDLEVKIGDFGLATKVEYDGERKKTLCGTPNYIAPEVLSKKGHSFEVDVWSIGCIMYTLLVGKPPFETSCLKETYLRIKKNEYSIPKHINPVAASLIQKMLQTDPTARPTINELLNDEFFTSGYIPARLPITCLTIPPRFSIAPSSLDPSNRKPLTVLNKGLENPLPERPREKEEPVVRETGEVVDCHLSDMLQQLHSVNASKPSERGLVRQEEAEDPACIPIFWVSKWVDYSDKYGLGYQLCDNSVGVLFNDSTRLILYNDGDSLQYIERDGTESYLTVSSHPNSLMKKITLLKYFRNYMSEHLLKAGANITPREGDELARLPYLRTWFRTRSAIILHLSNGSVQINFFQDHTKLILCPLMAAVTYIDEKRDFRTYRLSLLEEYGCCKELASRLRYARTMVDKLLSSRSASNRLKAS
Experiment: radiometric […]-ATP kinase assay, casein substrate, […] ATP (Reaction Biology)
Type: biochemical
Assay endpoint: pIC50
Here pIC50 is given on a logarithmic scale as minus log10 of the concentration in mol/L.

Asked: Determine from records and report pIC50 for `CN(C)C(=O)N1CCc2ccc(Nc3nccc(-n4cc(/C=C/c5ccccc5)c(C(N)=O)n4)n3)cc21`
Given back: 6.44

Asked: Determine from records and report pIC50 for `CCOC(=O)c1nn(-c2ccnc(Nc3ccc4c(c3)N(C(=O)N(C)C)CC4)n2)cc1/C=C/c1ccccc1`
Given back: 5.84

From: paper PMC9610081
